Conditions: buffer; pH 7.4; 200.0 µM
So basically: solubility kinetic at 30 µg/mL or higher? That is 1. Lower than 30 µg/mL? That is -1.

>>> df
                                    compound  label
 0  Cc1ccc(S(=O)(=O)NCC(=O)Nc2cccc([N+](=O)[O-])c2)cc1     -1
 1            COCCSc1ccccc1C(=O)Nc1ccccc1C#N      1
 2  Cc1ccc(N2C(=O)CCC(C(=O)O)C2c2cccs2)cc1 (configuration not stated)      1
 3            O=C(CSC(=O)c1ccccc1)Nc1ccccc1F     -1
 4         COc1ccccc1Nc1ccc([N+](=O)[O-])cn1     -1
 5  CC(=O)c1c(C)[nH]c(C(=O)Nc2cccc3ccccc23)c1C     -1
 6  CC(O)CNCCOc1cccc(Oc2ccccc2)c1.O=C(O)C(=O)O (configuration not stated)      1
 7            COc1ccc(C(=O)Nc2cccnc2Cl)cc1OC      1
 8  CN(c1ccc(OCCOc2ccccc2Cl)cc1)S(=O)(=O)c1ccccc1     -1
 9  O=C1CSC(c2ccccc2[N+](=O)[O-])N1c1ccc(O)cc1 (configuration not stated)      1
10            Cc1ccc(C(=O)Nc2cccc3ccccc23)o1     -1
11              CCOc1ccc(Nc2nc3ccccc3n2C)cc1      1

----------
Settings: buffer; pH 7.4; 200.0 µM
So basically: solubility kinetic at 20 µg/mL or higher? That is T. Lower than 20 µg/mL? That is F.

                                    compound  label
 0  CSc1ccccc1NC(=O)CN(C)CC(=O)Nc1ccc(S(=O)(=O)N2CCCC2)cc1      F
 1  CC(=O)Nc1ccc(NC(=O)CCCn2cnc3ccccc3c2=O)cc1      T
 2  CCOC(=O)c1c(C)[nH]c(C)c1C(=O)COC(=O)c1cccs1      T
 3  COc1ccc(N2CC(C(=O)N3CCN(C)CC3)CC2=O)cc1 (stereo unspecified)      T
 4  CCOc1ccc(C=NCC(O)c2ccccc2)cc1 (stereo unspecified)      T
 5  COc1ccc(NC(=O)CC(Cc2ccc(Cl)cc2)C(=O)O)cc1 (stereo unspecified)      T
 6         COc1ccc(NC(=O)NCCCCc2ccccc2)cc1OC      F
 7         Cc1ccccc1OCC(=O)O/N=C(\N)c1ccncc1      T
 8  CCc1ccc(NC(=S)Nc2ccc3[nH]c(=O)[nH]c3c2)cc1      F
 9        CCc1noc(C)c1C(=O)OCC(=O)c1ccccc1OC      F
10           O=C(NC(=S)Nc1ccc(Cl)cc1Cl)C1CC1      F
11  Cc1ccc(N2C(=O)C3CCC(C)(C2=O)C3(C)C)cc1 (stereo unspecified)      T
12       CNc1ccc(S(=O)(=O)NC)cc1[N+](=O)[O-]      T
13  CCOc1ccc(NC(=O)N(CCN(C)C)C(C)c2cccnc2)cc1 (stereo unspecified)      T
14       Cc1ccc(S(=O)(=O)Nc2cccc3ncccc23)cc1      T
15              Cc1cccc(C)c1OCC(=O)Nc1ccncc1      T
16  COc1cc2c(cc1OC)C(C)N(C(=O)c1cc(Cl)nc(Cl)c1)CC2 (stereo unspecified)      F
17  O=C(Nc1ccc(F)cc1)N1CCN(C(=O)C2CCCO2)CC1 (stereo unspecified)      T
18        Cc1ccc2[nH]c(CSc3ccccc3)cc(=O)c2c1      F
19              O=C(Nc1ccc(F)c(Cl)c1)C1CCCC1      F
20                    COCc1cc(=O)[nH]c(SC)n1      T
21             Cc1ccc(F)cc1NC(=O)CCOc1ccccc1      F
22                 COc1ccc(-c2nc(C=O)cs2)cc1      T
23    CCOc1cc(C(=O)N2CCCN(C)CC2)cc(OCC)c1OCC      T
24        CC(=O)c1cccc(NC(=S)Nc2ccc(F)cc2)c1      T
25               O=C(CCCC(=O)N1CCCC1)N1CCCC1      T

----------
Details: buffer; pH 7.4; 200.0 µM
Reported solubility kinetic is given for each of the following compounds.
reported metric: solubility kinetic (µg/mL)

In [3]: df
Out[3]:
                                    compound      u  qualifier  observed_result
 0  N#CC1=C(N)OC2=C(C(=O)CCC2)C1c1cc2c(cc1Cl)OCO2 (stereo not given)  µg/mL          =               17
 1  CC(NC(=O)C(Cc1ccccc1)n1cccc1)c1ccccc1 (stereo not given)  µg/mL          =             11.6
 2  O=C(CN1CCCCCC1)Nc1ccc(S(=O)(=O)N2CCCCC2)cc1  µg/mL          =             50.4
 3   Cc1ccc(-c2ccc(/C=N/O)o2)cc1[N+](=O)[O-]  µg/mL          =              3.4
 4  CC(=O)c1cccc(CN2CCN(C3CCCC3)C(CCO)C2)c1 (stereo not given)  µg/mL          >             49.6
 5       NC(=O)c1ccccc1NS(=O)(=O)c1ccc(F)cc1  µg/mL          >             44.1
 6  CN(CCN(C)C(C)(C)C)C(=O)C(c1ccccc1)c1ccccc1  µg/mL          =               48
 7    O=C(Cn1cnc2ccccc2c1=O)c1ccc(OC(F)F)cc1  µg/mL          =              9.2
 8     CC1(C)CC(=O)C=C(NCc2ccc(C(=O)O)cc2)C1  µg/mL          =             37.6
 9                Cl.NCc1cc2c3c(c1)CCCN3CCC2  µg/mL          >             41.3
10  O=C(O)c1ccc(S(=O)(=O)N2CCN(c3ccccn3)CC2)cc1  µg/mL          >             52.1
11   C=CCN(c1nc(C)cc(OC)n1)S(=O)(=O)c1ccccc1  µg/mL          =             19.4
12  Cc1ccc(NC(=O)c2ccc(OCc3c(C)noc3C)cc2)cc1C  µg/mL          =              6.7
13  Cc1ccc2c(COC(=O)C3CC(=O)N(c4ccc5c(c4)OCCO5)C3)cc(=O)oc2c1 (stereo not given)  µg/mL          =             19.6
14           C=CCNc1nc(-c2c(C)nc3ncccn23)cs1  µg/mL          >             40.7
15   CCOc1ccc(OCC)c(S(=O)(=O)n2cc(C)nc2CC)c1  µg/mL          =             10.6
16             O=C(OCc1nc2ccccc2s1)c1ccccc1O  µg/mL          =              4.8
17                Cc1[nH]c2c(ccc3cccnc32)c1C  µg/mL          =             19.4
18     CCCCN(CC)C(=O)c1cc2cc3ccc(Cl)cc3nc2o1  µg/mL          =              3.3
19              Cc1ccccc1CSCC(=O)Nc1ccccc1Br  µg/mL          =              4.5
20     CC1CCN(Cc2cc(=O)oc3cc(O)c(Cl)cc23)CC1  µg/mL          >             46.2
21         Cc1ccc(Nc2nc(-c3ccc(F)cc3)cs2)nc1  µg/mL          <              0.2
22               O=C(Nc1ccc(F)cc1F)N1CCCCCC1  µg/mL          >             38.1
23        O=S(=O)(c1ccc(Cl)cc1)N1CCc2ccccc21  µg/mL          =              6.1
24            Cc1cc(C)cc(OCC(=O)Nc2ccncc2)c1  µg/mL          =             36.7
25  Cc1ccc(C(C)C)cc1S(=O)(=O)NC1CC(C)(C)NC(C)(C)C1  µg/mL          =             35.2
26             O=C(CC(=O)Nc1ccccc1)Nc1ccccc1  µg/mL          =              8.4
27  COc1ccc(/C=C/C(=O)NC(=S)NCc2ccccc2)cc1OC  µg/mL          =              2.4
28  CC1CC1C(=O)Nc1nc2ccc(Cl)cc2s1 (stereo not given)  µg/mL          =              0.6
29   CCN(C(=O)COC(=O)CCC(=O)c1cccs1)C1CCCCC1  µg/mL          >             52.7
30       O=C(c1ccc([N+](=O)[O-])o1)N1CCCCCC1  µg/mL          >             35.7
31  CCC(=O)N(Cc1cc2ccccc2[nH]c1=O)c1ccc(OC)cc1  µg/mL          >             50.5
32  Cc1cccc(NC(=S)NC2CCSc3ccccc32)c1 (stereo not given)  µg/mL          <              0.3
33  Cc1ccc(C(=O)O/N=C(\N)Cc2cccc3ccccc23)cc1  µg/mL          =              0.5
34        CCCc1nc(SCC(=O)NC2CCCC2)c2ccccc2n1  µg/mL          =              1.9
35                    COC(CNC(=O)c1cccnc1)OC  µg/mL          =             26.4
36         CN(C(=O)CSc1ncnc2ccccc12)C1CCCCC1  µg/mL          =             45.4
37  CCc1nnc(NC(=O)C2CCCO2)s1 (stereo not given)  µg/mL          >             34.1
38            COc1ccc(Cl)cc1NC(=O)NCc1cccnc1  µg/mL          >             43.8
39       CCOC(=O)c1sc(NC(=O)c2sc(C)nc2C)nc1C  µg/mL          =              8.7
40  CCc1ccc(N2CC(C(=O)OC)CC2=O)cc1 (stereo not given)  µg/mL          >             37.1
41             COC(=O)c1cc(-c2ccc(OC)cc2)on1  µg/mL          =              9.7
42  S=C(NCC1CCCO1)N1CCc2ccccc2C1 (stereo not given)  µg/mL          >             41.5
43               COCCNC(=S)NCCc1ccc(Cl)cc1Cl  µg/mL          >             46.1
44             CC(=O)Nc1ccc(-n2c(C)ccc2C)cc1  µg/mL          >             34.2
45      O=C(CN1C(=O)COc2ccccc21)NCCCN1CCOCC1  µg/mL          >               50
46  COc1cccc(CNC(=O)CC2Sc3ccccc3NC2=O)c1 (stereo not given)  µg/mL          =              1.5
47    Cc1ccn2c(C=O)c(-c3ccc(F)cc3)c(C=O)c2c1  µg/mL          =              8.5
48  CCN(c1ccccc1)S(=O)(=O)c1ccc(N2CCN(c3ccc(O)cc3)CC2)nc1  µg/mL          =              2.7
49        CCc1cc2c(=O)oc(-c3ccc(Br)cc3)nc2s1  µg/mL          <              0.7
